# test: Toxicity liver stage against HepG2, at 10uM
# Assay type: cell-based
# Set-up: test concentration 10 uM, cell line HepG2-A16-CD81EGFP
# condition: human, HepG2-A16-CD81EGFP cells; read-out: INHIBITION

| molecule | cytotoxicity at 10 µM / % |
| --- | --- |
| C[C@@H]1C[C@@H]2CCN(C(=O)c3ccncn3)C[C@H]2O1 | -1.55 |
| CN(Cc1ccncn1)C(=O)CCC(=O)NC1CCCC1 | -1.01 |
| Cc1nc(-c2ccc(CNS(=O)(=O)N(C)C)cc2)ccc1C(N)=O | -8.53 |
| Cc1ccc(-c2noc(CN3CCn4c(nnc4C4CC4)C3)n2)cc1 | -9.04 |
| O=C(NC1CCCOc2cc(Cl)ccc21)c1ccc(=O)[nH]n1 (configuration not stated) | 1.5 |
| CN(CCc1ccccn1)CCc1nccs1 | 2.01 |
| c1cnc(N2CCOC3(CCCN(c4cnccn4)C3)C2)nc1 (configuration not stated) | 10.1 |
| CCc1ncc2c(n1)CN(CC(=O)NC1CCCCNC1=O)CC2 (configuration not stated) | 6.61 |
| Cc1cc(C)n(C2CCCN(C(=O)c3ccc(NC4CC4)nc3)C2)n1 (configuration not stated) | 5.25 |
| O=C(NCC(CO)Cc1ccc(Cl)cc1)c1ccncc1F (configuration not stated) | -4.84 |
| CCOc1ccc(Cl)c(C(=O)N2CCN(c3ncccn3)CC2)n1 | -1.9 |
| O=C(Nc1ccc(CCN2CCOCC2)cc1)C1CCC1 | -9.95 |

Cited source: ChEMBL document CHEMBL4513216
